# details: human gut metagenome, 24 h, 2 µM; also: call rule not given here
readout.name: Bacterial Biotransformation

# compound, readout.name, assay.result
rows = [
    ("COc1cc2nc(N3CCN(C(=O)C4CCCO4)CC3)nc(N)c2cc1OC (centres undefined) [TERAZOSIN]", "Bacterial Biotransformation", "Compound metabolized"),
    ("O=C(CCCN1CCC2(CC1)C(=O)NCN2c1ccccc1)c1ccc(F)cc1 [SPIPERONE]", "Bacterial Biotransformation", "Compound NOT metabolized"),
    ("CC(C)[C@H]1CC[C@H](C(=O)N[C@H](Cc2ccccc2)C(=O)O)CC1 [NATEGLINIDE]", "Bacterial Biotransformation", "Compound metabolized"),
    ("Br.CN1CCC[C@@H]1Cc1c[nH]c2ccc(CCS(=O)(=O)c3ccccc3)cc12 [ELETRIPTAN HYDROBROMIDE]", "Bacterial Biotransformation", "Compound NOT metabolized"),
]

In: If you can, please state the reported Bacterial Biotransformation value of Cc1nc(Nc2ncc(C(=O)Nc3c(C)cccc3Cl)s2)cc(N2CCN(CCO)CC2)n1 [DASATINIB ANHYDROUS] .
Out: Compound NOT metabolized

In: Report Bacterial Biotransformation for CN1CCC[C@@H]1CCO[C@](C)(c1ccccc1)c1ccc(Cl)cc1.O=C(O)/C=C/C(=O)O [CLEMASTINE FUMARATE] please.
Out: Compound metabolized

In: Look up Bacterial Biotransformation for this compound: CC(C)(C)N.CCC[C@H](N[C@@H](C)C(=O)N1[C@H](C(=O)O)C[C@@H]2CCCC[C@@H]21)C(=O)OCC [PERINDOPRIL ERBUMINE]
Out: Compound metabolized

In: Need Bacterial Biotransformation of COc1ccc2cc([C@H](C)C(=O)O)ccc2c1 [NAPROXEN] , thanks.
Out: Compound metabolized

In: Bench note: what Bacterial Biotransformation did CCN(CC)C(=O)C1(c2ccccc2)CC1CN (centres undefined) show?
Out: Compound NOT metabolized

* * *

# method.description: The drug is tested on Z-030 corresponding to mouse gut metagenome with ENA study accession number: PRJEB37062 and ENA sample accession number: ERS12561829 for biotransformation under anaerobic condition. The drug concentrations were measured over 9 timepoints collected between 0 and 24 hours of incubation by liquid-chromatography-coupled mass spectrometry (LC–MS)
# details: 2 µM
readout.name: Bacterial Biotransformation

# molecule, assay.result
measured = [
    ("CN1CCCCC1CCN1c2ccccc2Sc2ccc([S+](C)[O-])cc21.O=S(=O)(O)c1ccccc1 (stereo not drawn) [MESORIDAZINE BESYLATE]", "Compound NOT metabolized"),
    ("COc1ccc([C@@H]2Sc3ccccc3N(CCN(C)C)C(=O)[C@@H]2OC(C)=O)cc1", "Compound NOT metabolized"),
]

* * *

# method.description: The drug is tested on Z-010 corresponding to metagenome with ENA study accession number: PRJEB37062 and ENA sample accession number: ERS12561810 for biotransformation under anaerobic condition. The drug concentrations were measured over 9 timepoints collected between 0 and 24 hours of incubation by liquid-chromatography-coupled mass spectrometry (LC–MS)
# details: 2 µM
readout.name: Bacterial Biotransformation

Consider the reported Bacterial Biotransformation for these compounds:
# compound, Bacterial Biotransformation
measured = [
    ("COc1ccc2c(c1)c(CC(=O)O)c(C)n2C(=O)c1ccc(Cl)cc1", "Compound NOT metabolized"),
    ("O=C(O)CCC(=O)O.O=C(O[C@H]1CN2CCC1CC2)N1CCc2ccccc2[C@@H]1c1ccccc1 [SOLIFENACIN SUCCINATE]", "Compound metabolized"),
    ("CC(=O)O[C@H]1C(=O)[C@@]2(C)[C@H]([C@H](OC(=O)c3ccccc3)[C@]3(O)C[C@H](OC(=O)[C@H](O)[C@@H](NC(=O)c4ccccc4)c4ccccc4)C(C)=C1C3(C)C)[C@]1(OC(C)=O)CO[C@@H]1C[C@@H]2O", "Compound metabolized"),
    ("C[C@H]1C[C@H]2[C@@H]3CCC4=CC(=O)C=C[C@]4(C)[C@@]3(F)[C@@H](O)C[C@]2(C)[C@@]1(O)C(=O)CO", "Compound metabolized"),
    ("C#C[C@]1(OC(C)=O)CC[C@H]2[C@@H]3CCC4=C/C(=N/O)CC[C@@H]4[C@H]3CC[C@@]21CC [NORGESTIMATE]", "Compound NOT metabolized"),
]

Now let's try a different one.
In: Would you mind telling me what Bacterial Biotransformation value was observed for CCN1CCCC1CNC(=O)c1cc(S(=O)(=O)CC)c(N)cc1OC (stereo unspecified) [AMISULPRIDE] ?
Out: Compound NOT metabolized
